- target of assay: mouse HDAC6 (Mus musculus)
- Construct: HA; made in house; host or cells: 293T cells (transient transfection, anti-HA immunoprecipitation, HA peptide elution)
- Sequence (Q9Z2V5 1-1149): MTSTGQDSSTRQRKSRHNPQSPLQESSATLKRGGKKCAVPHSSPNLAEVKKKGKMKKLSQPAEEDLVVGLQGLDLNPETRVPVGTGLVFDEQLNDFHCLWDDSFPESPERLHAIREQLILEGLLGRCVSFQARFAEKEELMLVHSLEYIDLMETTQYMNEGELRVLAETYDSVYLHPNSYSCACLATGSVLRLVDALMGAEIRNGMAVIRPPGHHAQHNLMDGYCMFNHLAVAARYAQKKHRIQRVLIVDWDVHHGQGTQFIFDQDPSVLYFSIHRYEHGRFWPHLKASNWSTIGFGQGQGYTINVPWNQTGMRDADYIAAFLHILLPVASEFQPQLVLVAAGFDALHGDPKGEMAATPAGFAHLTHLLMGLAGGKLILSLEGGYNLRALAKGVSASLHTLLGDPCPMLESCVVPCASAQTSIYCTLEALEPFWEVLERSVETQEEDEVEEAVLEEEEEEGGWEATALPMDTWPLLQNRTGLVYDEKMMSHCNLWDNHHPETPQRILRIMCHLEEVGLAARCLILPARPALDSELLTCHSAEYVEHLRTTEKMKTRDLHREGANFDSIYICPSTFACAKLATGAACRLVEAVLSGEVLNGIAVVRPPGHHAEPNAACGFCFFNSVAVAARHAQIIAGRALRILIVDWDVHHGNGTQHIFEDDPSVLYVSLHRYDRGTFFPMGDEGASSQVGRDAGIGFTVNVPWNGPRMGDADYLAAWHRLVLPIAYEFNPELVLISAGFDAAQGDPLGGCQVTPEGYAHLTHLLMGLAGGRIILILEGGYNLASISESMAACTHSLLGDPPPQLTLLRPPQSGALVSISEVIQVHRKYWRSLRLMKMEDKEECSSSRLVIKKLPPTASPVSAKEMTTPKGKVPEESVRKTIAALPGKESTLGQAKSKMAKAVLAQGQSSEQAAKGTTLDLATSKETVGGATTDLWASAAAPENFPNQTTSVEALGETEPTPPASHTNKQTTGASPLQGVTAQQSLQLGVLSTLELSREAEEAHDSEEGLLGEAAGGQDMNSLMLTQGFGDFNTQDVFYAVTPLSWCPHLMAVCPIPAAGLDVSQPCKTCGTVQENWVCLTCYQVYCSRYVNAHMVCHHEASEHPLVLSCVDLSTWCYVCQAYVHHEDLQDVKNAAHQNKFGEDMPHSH
- assay explanation: In vitro HDAC inhibition activity, [3H]-acetylated histone substrate, HDAC6
- Type: biochemical
- assay setup: Table 3; hybrid, without DTT
*1 amine or outer side, *2 acyl side, *3 side chain or, on linkers, in order; H or OH if unused. Where a SMILES comes first, the peptide text is derived from it. [ ]: non-standard residue; d: D form. The star is where a group is joined. hNle(7-SH) = O=C([C@H](CCCCCS[*:3])N[*:1])[*:2]; X1 = CN(C)C(=O)c1cc(S*)ccc1[N+](=O)[O-]
measurement name: IC50 (nM)
Field: numeric (nM). Do not append units.

• CC[C@H](C)[C@@H]1NC(=O)[C@@H](Cc2ccc(OC)cc2)NC(=O)[C@H](CCCCCSSCCO)NC(=O)[C@H]2CCCN2C1=O [SCOP 404] = 201000

*Q* Any idea what IC50 was measured for CC[C@H](C)[C@@H]1NC(=O)[C@@H](Cc2ccc(OC)cc2)NC(=O)[C@H](CCCCCSSC)NC(=O)[C@H]2CCCN2C1=O [SCOP 405] ?
*A* 191

*Q* Any idea what IC50 was measured for CC[C@H](C)[C@@H]1NC(=O)[C@@H](Cc2ccc(OC)cc2)NC(=O)[C@H](CCCCCSSc2ccc([N+](=O)[O-])c(C(=O)N(C)C)c2)NC(=O)[C@H]2CCCN2C1=O [SCOP 403] (cyclo([hNle(7-SH)](X1)[dY](Me)I[dP])) ?
*A* 6080

*Q* Any idea what IC50 was measured for CC[C@H](C)[C@@H]1NC(=O)[C@@H](Cc2ccc(OC)cc2)NC(=O)[C@H](CCCCCSSc2ccncc2)NC(=O)[C@H]2CCCN2C1=O [SCOP 402] ?
*A* 1610

====

- target of assay: human HDAC4 (Homo sapiens)
- Construct: FLAG; made in house; host or cells: 293T cells (transient transfection, anti-FLAG immunoprecipitation, FLAG peptide elution)
- Sequence (O15379 whole entry partner): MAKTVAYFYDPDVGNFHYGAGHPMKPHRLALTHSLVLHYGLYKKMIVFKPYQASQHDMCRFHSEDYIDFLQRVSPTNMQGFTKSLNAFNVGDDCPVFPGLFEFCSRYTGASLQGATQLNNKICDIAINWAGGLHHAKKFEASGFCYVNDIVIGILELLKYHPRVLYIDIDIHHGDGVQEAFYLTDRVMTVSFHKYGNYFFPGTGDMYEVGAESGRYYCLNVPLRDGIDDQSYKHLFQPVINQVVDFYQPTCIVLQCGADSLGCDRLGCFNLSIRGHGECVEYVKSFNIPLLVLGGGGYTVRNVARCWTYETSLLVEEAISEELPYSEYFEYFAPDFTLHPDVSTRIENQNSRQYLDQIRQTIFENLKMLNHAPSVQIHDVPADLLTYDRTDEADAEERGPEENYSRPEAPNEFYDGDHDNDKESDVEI
- Sequence (P56524 whole entry): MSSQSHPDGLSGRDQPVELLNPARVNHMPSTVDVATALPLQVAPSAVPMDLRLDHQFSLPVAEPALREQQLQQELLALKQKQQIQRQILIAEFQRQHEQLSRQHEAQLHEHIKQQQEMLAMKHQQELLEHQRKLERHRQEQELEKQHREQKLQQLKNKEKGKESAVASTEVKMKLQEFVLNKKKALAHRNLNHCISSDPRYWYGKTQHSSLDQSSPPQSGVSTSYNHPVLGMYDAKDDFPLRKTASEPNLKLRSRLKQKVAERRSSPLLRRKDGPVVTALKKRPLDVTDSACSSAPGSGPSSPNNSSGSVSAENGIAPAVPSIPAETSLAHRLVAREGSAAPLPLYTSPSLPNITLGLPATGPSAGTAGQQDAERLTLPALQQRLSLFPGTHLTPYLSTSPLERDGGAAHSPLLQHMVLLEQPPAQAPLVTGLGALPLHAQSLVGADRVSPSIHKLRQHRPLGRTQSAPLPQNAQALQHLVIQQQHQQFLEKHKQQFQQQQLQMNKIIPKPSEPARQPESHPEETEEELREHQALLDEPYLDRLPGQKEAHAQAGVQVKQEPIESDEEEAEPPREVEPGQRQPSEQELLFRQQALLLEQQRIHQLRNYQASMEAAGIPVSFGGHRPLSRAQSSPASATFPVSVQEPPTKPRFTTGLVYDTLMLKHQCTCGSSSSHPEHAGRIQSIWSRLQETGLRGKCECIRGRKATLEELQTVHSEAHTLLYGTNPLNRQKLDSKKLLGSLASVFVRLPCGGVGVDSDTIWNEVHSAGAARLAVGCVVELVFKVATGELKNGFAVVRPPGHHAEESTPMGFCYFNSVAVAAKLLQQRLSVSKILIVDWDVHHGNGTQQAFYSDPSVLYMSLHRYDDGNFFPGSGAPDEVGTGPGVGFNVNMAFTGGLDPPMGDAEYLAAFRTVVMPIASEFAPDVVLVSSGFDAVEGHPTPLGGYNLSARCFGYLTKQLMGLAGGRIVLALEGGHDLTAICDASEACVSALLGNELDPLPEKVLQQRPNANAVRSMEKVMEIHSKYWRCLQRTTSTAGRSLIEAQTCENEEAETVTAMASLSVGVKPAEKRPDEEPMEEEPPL
- assay explanation: In vitro HDAC inhibition activity, [3H]-acetylated histone substrate, HDAC4
- Assay type: biochemical
- assay setup: Table 2; homodimer
measurement name: IC50

*Q* Write down the reported IC50 of CC[C@H](C)[C@@H]1NC(=O)[C@@H](Cc2ccc(OC)cc2)NC(=O)[C@H](CCCCSSCCCC[C@@H]2NC(=O)[C@H]3CCCN3C(=O)[C@H]([C@@H](C)CC)NC(=O)[C@@H](Cc3ccc(OC)cc3)NC2=O)NC(=O)[C@H]2CCCN2C1=O [SCOP 302, cyclo(-L-Am6(-)-D-Tyr(Me)-L-Ile-D-Pro-] , test system: human HDAC4 (Homo sapiens).
*A* > 500000 nM

====

compounds and their reported IC50
- target of assay: mouse HDAC6 (Mus musculus)
- Construct: HA; made in house; host or cells: 293T cells (transient transfection, anti-HA immunoprecipitation, HA peptide elution)
- assay explanation: In vitro HDAC inhibition activity, [3H]-acetylated histone substrate, HDAC6
- Format: biochemical
- assay setup: Table 2; homodimer
- Protocol: To measure HDAC inhibition activity, an HDAC solution was prepared as described below. 1×10^7 of 293T cells were plated on to a 100-mm dish and, after 24 hours, transfected with vectors (1 μg) expressing human HDAC1 and HDAC4 or mouse HDAC6, using LipofectAmine 2000 reagent (Life Technologies, Inc. Gaithersburg, Md.). […] The vectors were introduced for five hours in OPTI-MEM. […] In vitro HDAC inhibition activity was evaluated as follows: A test compound was dissolved in DMSO and adjusted to 10 mM. […]
*1 amine or outer side, *2 acyl side, *3 side chain or, on linkers, in order; H or OH if unused. Where a SMILES comes first, the peptide text is derived from it. Bridges are numbered along the chain shown (N, C = ends). Roman numbers before positions name the chains, in order. [ ]: non-standard residue; d: D form. hNle(7-SH) = O=C([C@H](CCCCCS[*:3])N[*:1])[*:2]; Pip = O=C(O)[C@@H]1CCCCN1; dPip = O=C(O)[C@H]1CCCCN1
Field: numeric (nM). Do not append units.

Past entries and their recorded results:
* CC[C@H](C)[C@@H]1NC(=O)[C@@H](Cc2ccc(OC)cc2)NC(=O)[C@H](CCCCCCSSCCCCCC[C@@H]2NC(=O)[C@H]3CCCN3C(=O)[C@H]([C@@H](C)CC)NC(=O)[C@@H](Cc3ccc(OC)cc3)NC2=O)NC(=O)[C@H]2CCCN2C1=O [SCOP 306, cyclo(-L-Am8(-)-D-Tyr(Me)-L-Ile-D-Pro-] | 1.32e+06
* CC[C@H](C)[C@@H]1NC(=O)[C@@H](Cc2ccc(OC)cc2)NC(=O)[C@H](CCCCCSSCCCCC[C@@H]2NC(=O)[C@@H]3CCCCN3C(=O)[C@H]([C@@H](C)CC)NC(=O)[C@@H](Cc3ccc(OC)cc3)NC2=O)NC(=O)[C@@H]2CCCCN2C1=O [SCOP 298, cyclo(-L-Am7(-)-D-Tyr(Me)-L-Ile-L-Pip-] (I: cyclo([hNle(7-SH)][dY](Me)I[Pip]) / II: cyclo([hNle(7-SH)][dY](Me)I[Pip]); disulfide I:1-II:1) | 418000
* CC[C@H](C)[C@@H]1NC(=O)[C@@H](Cc2ccc(OC)cc2)NC(=O)[C@H](CCCCCSSCCCCC[C@@H]2NC(=O)[C@H]3CCCCN3C(=O)[C@H]([C@@H](C)CC)NC(=O)[C@@H](Cc3ccc(OC)cc3)NC2=O)NC(=O)[C@H]2CCCCN2C1=O [SCOP 300, cyclo(-L-Am7(-)-D-Tyr(Me)-L-Ile-D-Pip-] (I: cyclo([hNle(7-SH)][dY](Me)I[dPip]) / II: cyclo([hNle(7-SH)][dY](Me)I[dPip]); disulfide I:1-II:1) | 255000

Okay, now this compound:
*Q* Any idea what IC50 was measured for CC[C@H](C)[C@@H]1NC(=O)[C@@H](Cc2ccc(OC)cc2)NC(=O)[C@H](CCCCCCCSSCCCCCCC[C@@H]2NC(=O)[C@H]3CCCN3C(=O)[C@H]([C@@H](C)CC)NC(=O)[C@@H](Cc3ccc(OC)cc3)NC2=O)NC(=O)[C@H]2CCCN2C1=O [SCOP 308, cyclo(-L-Am9(-)-D-Tyr(Me)-L-Ile-D-Pro-] ?
*A* 745000

Data provenance is patent US7488712B2.
